- ASSAY SYSTEM: pim-1 kinase (Homo sapiens)
- Construct: The kinase used was cloned, expressed and purified using proprietary methods
- Sequence (P11309 whole entry): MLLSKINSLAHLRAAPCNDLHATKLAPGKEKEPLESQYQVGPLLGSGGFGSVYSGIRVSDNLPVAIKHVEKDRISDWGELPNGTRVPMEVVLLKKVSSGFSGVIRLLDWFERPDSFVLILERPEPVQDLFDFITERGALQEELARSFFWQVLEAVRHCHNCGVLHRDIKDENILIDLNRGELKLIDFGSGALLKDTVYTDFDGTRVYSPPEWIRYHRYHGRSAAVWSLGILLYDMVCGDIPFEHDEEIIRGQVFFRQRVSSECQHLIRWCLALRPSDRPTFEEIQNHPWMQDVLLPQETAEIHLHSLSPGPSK
- ASSAY NAME: Pim-1 kinase radioisotope (33P-ATP) assay, Kinexus compound profiling service
- Format: biochemical
ENDPOINT LABEL: IC50 (µM)

Look over these answered cases.
compound="Cc1nc2sc3c(c2c(C)c1Br)NC(c1ccccc1C(F)(F)F)NC3=O (stereo not shown) [Compound 7d]" assay_system="pim-1 kinase (Homo sapiens)" reported_measurement=1.97
compound="Cc1nc2sc3c(=O)[nH]c(-c4ccccc4O)nc3c2c(C)c1Br [Compound 6c]" assay_system="pim-1 kinase (Homo sapiens)" reported_measurement=4.62
compound="Cc1nc2sc3c(c2c(C)c1Br)NC(c1ccccc1Cl)NC3=O (stereo not shown) [Compound 7a]" assay_system="pim-1 kinase (Homo sapiens)" reported_measurement=1.18

A = Cc1nc2sc3c(c2c(C)c1Br)NC(c1ccccc1O)NC3=O (stereo not shown) [Compound 7c]
B = Cc1nc2sc3c(=O)[nH]c(C(F)(F)F)nc3c2c(C)c1Br [Compound 8b]
C = CC(=O)Cc1nc2c(sc3nc(C)c(Br)c(C)c32)c(=O)[nH]1 [Compound 9]
Ordering criterion: IC50; begin with the maximum. Thanks in advance for listing the labels in the requested order.
B, C, A
(B: 8.83 µM, C: 4.18 µM, A: 1.38 µM)

====

Reported IC50 by item:
- Tested on: human colon adenocarcinoma (HCT116)
- ASSAY NAME: MTT cytotoxicity assay, HCT116
- Type: cell-based
- EXPERIMENTAL PARAMETERS: 72 h exposure, means of three experiments
Report the figure in µM without appending any unit label.

molecule="Cc1nc2sc3c(c2c(C)c1Br)NC(c1ccccc1C(F)(F)F)NC3=O (centres unmarked)" assay_system="human colon adenocarcinoma (HCT116)" reported_measurement=30

# input for lookup
Report value only: IC50, human colon adenocarcinoma (HCT116), Cc1nc2sc3c(c2c(C)c1Br)NC(c1ccccc1Cl)NC3=O (centres unmarked)
18.3

====

- System: human breast adenocarcinoma (MCF7)
- ASSAY NAME: MTT cytotoxicity assay, MCF7
- Type: cell-based
ENDPOINT LABEL: cytotoxic activity on MCF7, in words

compound=CC(=O)Cc1nc2c(sc3nc(C)c(Br)c(C)c32)c(=O)[nH]1 endpoint_label="cytotoxic activity on MCF7, in words" reported_measurement=weak
compound=Cc1nc2sc3c(=O)[nH]c(-c4ccccc4O)nc3c2c(C)c1Br endpoint_label="cytotoxic activity on MCF7, in words" reported_measurement=moderate
compound="Cc1nc2sc3c(c2c(C)c1Br)NC(c1ccccc1O)NC3=O (stereo not shown)" endpoint_label="cytotoxic activity on MCF7, in words" reported_measurement=moderate

====

- Tested on: human prostate cancer cells (PC3)
- ASSAY NAME: MTT cytotoxicity assay, PC3
- Format: cell-based
ENDPOINT LABEL: cytotoxic activity on PC3, in words

compound="Cc1nc2sc3c(c2c(C)c1Br)NC(c1ccccc1O)NC3=O (stereo not shown)" endpoint_label="cytotoxic activity on PC3, in words" reported_measurement=moderate
compound=Cc1nc2sc3c(=O)[nH]c(C(F)(F)F)nc3c2c(C)c1Br endpoint_label="cytotoxic activity on PC3, in words" reported_measurement=moderate
compound=CC(=O)Cc1nc2c(sc3nc(C)c(Br)c(C)c32)c(=O)[nH]1 endpoint_label="cytotoxic activity on PC3, in words" reported_measurement=weak
compound=Cc1nc2sc3c(=O)[nH]c(-c4ccccc4O)nc3c2c(C)c1Br endpoint_label="cytotoxic activity on PC3, in words" reported_measurement=moderate
